B1: HDV Ribozyme (parent)
chain: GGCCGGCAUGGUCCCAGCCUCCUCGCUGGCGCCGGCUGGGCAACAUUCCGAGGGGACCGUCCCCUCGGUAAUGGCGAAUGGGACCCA

Variants of: B1
assayProcedure: self-cleavage, relative activity (ratio to wild type); higher = more cleavage; co-transcriptional
# maps each entry to its self-cleavage
Lab note: jot down the number only; don't add units.

| biopolymerSequence | self-cleavage |
| --- | --- |
| GGCCGCCAUGGUCCCAGCCUCCUCGCUGGCGCCGGCUGGGCAACAUUCCGAGGGGACAGUCCCCUCGGUAAUGGCGAAUGGGACCCA [G6C C58A] | 0.308 |
| GGCCCGCAUGGUCCCAGCCUCAUCGCUGGCGCCGGCUGGGCAACAUUCCGAGGGGACCGUCCCCUCGGUAAUGGCGAAUGGGACCCA [G5C C22A] | 0 |
| GGCCGGCAUGGUCCCAGCCUCCUCGCUGGCGCCGGCUGGGCAACAUCCCGAGGGGACCGUCCCCUCGGUAUUGGCGAAUGGGACCCA [U47C A71U] | 1.11 |
| UGCCGGCAUGGUCCCAGCCUCCUCGCUGGCGCCGGCUGGGCUACAUUCCGAGGGGACCGUCCCCUCGGUAAUGGCGAAUGGGACCCA [G1U A42U] | 0.332 |
| GGCCGGCAUGGUCCCAGCCUCCUCGCUGGCGCCGGCUGGGCAACAUUCCUAGAGGACCGUCCCCUCGGUAAUGGCGAAUGGGACCCA [G50U G53A] | 0.971 |
| GGCCGGCAUGGUCCCAGCCUCCUCGCUGGCGCCGGCUGGGCAAGAUUCCGAGGGGACGGUCCCCUCGGUAAUGGCGAAUGGGACCCA [C44G C58G] | 0.665 |
| GGCCGGCAUGGUCCCAGCCUCCUCGCUGGCGCCCGCUGGGCAACAUUCCGAGGGGACCGUCCCCUCGGUAAUGGCGAAUGGGAUCCA [G34C C84U] | 0.217 |
| GGCCGGCAUGGUCCCAGCCUCCUCGUUGGCGCCGGCUGGGCAACAUUCCGAGGGGACCGUCCCCUCGGUAAUGGCGGAUGGGACCCA [C26U A77G] | 0.872 |
| UGCCGGCAUGGUCCCAGCCUCCUCGCUGGCGCCGGCUGGGCAACAUUCCGGGGGGACCGUCCCCUCGGUAAUGGCGAAUGGGACCCA [G1U A51G] | 0.514 |
| GGCCGGCAUGGUCCCAGCCUACUCGCUGGCGCCGGCUGGGCAACAUUCCGAGGGGAACGUCCCCUCGGUAAUGGCGAAUGGGACCCA [C21A C57A] | 0.102 |

Request the reported self-cleavage associated with GGCCGGCAUGGUCCCAGCCUCCUCGCUGGCGCCGGCUGGGCAACAUUCCGAGGGGGCCGUCCCCUCGGUAAUGGCGAAUUGGACCCA [A56G G80U]
0.165

Request the reported self-cleavage associated with GGCCGGCAUGGUCCCAGCCUCCUCGCUGGCGCCGGCUGGGCAACAUUCCAAGGGGACCGUCCCCUCGGCAAUGGCGAAUGGGACCCA [G50A U69C]
0.688
